Biological target: PGD2 Receptor (Homo sapiens, UniProt Q13258)
Construct: endogenous in cells; host or cells: washed human platelets from a healthy volunteer
Sequence (Q13258 whole entry): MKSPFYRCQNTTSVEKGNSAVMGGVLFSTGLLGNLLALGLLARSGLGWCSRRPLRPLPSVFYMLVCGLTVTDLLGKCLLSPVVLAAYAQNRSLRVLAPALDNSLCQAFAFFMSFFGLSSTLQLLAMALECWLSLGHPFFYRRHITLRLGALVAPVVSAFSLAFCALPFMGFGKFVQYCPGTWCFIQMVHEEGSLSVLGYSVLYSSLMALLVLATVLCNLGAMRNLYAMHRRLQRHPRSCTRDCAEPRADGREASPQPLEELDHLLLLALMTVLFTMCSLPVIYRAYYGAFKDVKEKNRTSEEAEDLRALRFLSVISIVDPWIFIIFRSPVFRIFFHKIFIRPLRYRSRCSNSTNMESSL
Experiment: Antagonistic Activity Against PGD2 Receptor Using Human Platelet (cAMP increased by PGD2)
Type: cell-based
Settings: inhibition of cAMP increase by 0.1 μM PGD2 in washed human platelets
Listed here are compounds together with their documented pIC50.
Please express pIC50 as -log10 of the molar concentration.

O=C(O)CCC/C=C\C[C@H]1[C@@H]2CC[C@@H](C2)[C@@H]1NC(=O)c1csc2ccc(O)cc12 | 8.41

// next entry
[Q] What value of pIC50 has been recorded for this entry: O=C(O)CCC/C=C\C[C@H]1[C@@H]2CC[C@@H](C2)[C@@H]1NC(=O)c1csc2ccccc12
[A] 7.39
